# experimental system: T1, human SF-1 LBD (218-461) 2CS Cys-lite mutant (C247S and C412S) (human, UniProt Q13285 218-461, C247S | C412S)
# T1 construct: The His tag was removed with TEV; also called steroidogenic factor-1; NR5A1; source: complexed with dioleoyl PIP3, dipalmitoyl PIP3 or co-purifying bacterial phospholipid; not shown: His6, N-terminal, cleaved
# T1 sequence (Q13285 218-461 C247S/C412S): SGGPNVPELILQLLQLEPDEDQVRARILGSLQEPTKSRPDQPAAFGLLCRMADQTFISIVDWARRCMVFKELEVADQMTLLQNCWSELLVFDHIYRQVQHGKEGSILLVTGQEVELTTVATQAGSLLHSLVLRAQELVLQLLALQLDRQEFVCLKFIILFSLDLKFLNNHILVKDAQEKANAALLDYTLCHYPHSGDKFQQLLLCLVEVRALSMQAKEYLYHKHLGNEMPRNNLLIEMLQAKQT
# assay remarks: fluorescence polarisation; SF-1 LBD complexed with dioleoyl PIP3(18:1/18:1), serially diluted from 50 μM; 100 nM 5Fam-labeled peptide; 20 mM Hepes (7.5), 150 mM NaCl; 1 h at room temperature; one-site binding model
# cond: both partners purified
5Fam = 5-carboxyfluorescein label on the N-terminus

{"binder": "5Fam-EEPSLLKKLLLAPA-OH (also called fluorophore-labeled PGC1α peptide; fluorescently labeled peptide; source: synthetic peptide, bought: New England Peptide) [N-terminal 5Fam-labeled PGC1α co-activator peptide (5Fam-EEPSLLKKLLLAPA-OH)]", "Kd": "> 42 µM"}

Reference for the values: paper PMC8178125
